# protocolDescription: yeast display, Sf9 membrane polyspecificity reagent, FACS + sequencing; frameworks hold sequencing errors
measureName: polyreactivity (PSR sort gate)

Worked cases, answers included:
| residueString | polyreactivity (PSR sort gate) |
| --- | --- |
| QVQLLESGGGLVQAGGSLRLSCAASGSSFSHYTMGWYRQAPGKERELVAAINYGGASTYYADSVKGRFTISRDNAKNTVYLQMNSLKPEYTAVYYCAAANRPSEQDNYWGQGTQVTVSS | low polyreactivity |
| QVQLVESGGGLVQAGGSLRLSCAASGFTFVYYAMGWYRQAPGKERELVAAITSADSTNYADSVKGRFTISRDNAKNTVYLQMNSLKPEDTAVYYCNAVYDYYRQSKWTMVYWGQGTQVTVSS | low polyreactivity |
| QVQLVESGGGLVQAVGSLRLSCAASGFTIIDNAMGWYRQARGKERELVAAISISGGRTYYADSVKGRFTISRDNAKNTVYLQMNSLKPEDTAVYYCAAGKHRRDDYCGQGTQVTVSS | high polyreactivity |
| QVHLVESGGGLVLAGGSLRLSCAASGRIFSFYAMGWYRQAPGKERELVAAISSGGNTYYADSLKGRFTISRDNAKNTVYLQMNSLKPEDTAVYYCATGYRNLSSRYGYWGQGTQVSVSS | high polyreactivity |

State the recorded polyreactivity (PSR sort gate) for this entry: QVQLVESGGGLVQAGGSLRLSCAASGFIFDINAMGWYRQAPGTERELVADIRGGGSTYYADSVKGRFTISRDNAKNTVYVQMNSLKPEDTAVYYCNALDSYRHRPFDYWGQGTQVTVSS
low polyreactivity

====

# protocolDescription: yeast display, Sf9 membrane polyspecificity reagent, FACS + sequencing; frameworks hold sequencing errors
measureName: polyreactivity (PSR sort gate)

Worked cases, answers included:
| residueString | dataValue |
| --- | --- |
| QVQLVESGGGLVQAGGSLRLSCAASGRIFGYNAMGWYRQAPGKERELVAAIRRSGNTYADSVKGRFTISRDNAKNTVYLQMNSLKPEDTAVYYCAHRVSKRMYYWGQGTQVTVSS | high polyreactivity |
| QVQLVESGGGLVQAGGSLRLSCAASGRTFGYYAMGWYRPAPGKERELVAAITRTGGSTHYADSVKGRFTISRDNAKNTVYLQMNSLKPEDTAVYYCAVDYHQAWPSADYWFEYDYWGQGTQVTVSS | low polyreactivity |
| QVQLVESVGGLVQAGGSLRLSCAASGGIFWVYAMGWYRQAPGKERELVAAISNSDTSTSYADSVKGRFTISRDNAKNTVYLQMNSLKPEDTAVYYCNADSPSLSGDYWGQGTQVTVSS | low polyreactivity |
| QVQLVESGGGLVQAGGSLRLSCAASGITFVFYAMGWYRQAPGKARELVATISYRGTSTYYADSVKGRFTISRDNAKNTVYLQMNSLKPEDTAVSYCAGDTYIYYKTGYGYWGQGTQVTVSS | low polyreactivity |
| QVQLVESGGGLVQAGGSLRLSCAASGFIFSIYALGWYRQAPGKERELVAAISKSGGRTYYADSVKGRFTISRDNAKNTVYLQMNSLKPEDTAVYYCAVDSYYKYDYWGQGTQVTVSS | high polyreactivity |
| QVQLVESGGGLVQAGGSLRLSCAASGFTFGTYAMGWYRQAPGKERELVAAISARGGSTYYADSVKGRFTISRDNAKNTVYLQMNSLKPEDTAVYYCAAYYGRHVTPPTGYDYWGQGTQVTVSS | high polyreactivity |
| QVQLVESGGGLVQAGGSLRLSCAASGRIFADYAMGWYRQAPGKETELVAAISSTSSTNYADSVKGRFTISRDNAKNTVYLQMNSLKPEDTAVYYCAKRIGHLPFRPYDYWGQGTQVTVSS | low polyreactivity |
| QVQLVESGGGLVQAGGSLRLSCSASGSILSAYDMGWYRQATGKERELVAAIDSSGGSTYYADSVKGRFTISRDNAKNTVYLQMNSLKPEDTAVYYCAATSLAGYYKFDYWGQGSQVTVSS | low polyreactivity |

State the recorded polyreactivity (PSR sort gate) for this entry: QVQLVESGGGLVQAGGSLRLSCAASGSTFTRYAMGWYRQAPGKERELVAAINWSGTSTYYADSVKGRFTISRDNAKNTVYLQMNSLKPEDTAVYYCNKGYLVRPGDYWGQGTQVTVSS
high polyreactivity

State the recorded polyreactivity (PSR sort gate) for this entry: QVQLVESGGGLVQAGGSLRLSCAASGFTFSYNSMGRYRQATGKERELVARISRTGGSTNYADSVKGRFTISRDNAKNTVYLQMNSLKPEDTAVYYCGTGYRYTYGSWGQGTQVTVSS
high polyreactivity

State the recorded polyreactivity (PSR sort gate) for this entry: QVQLVESGGGLVQAGGSLRLTCAASGYTFLHYAMGWYRQPPGKERELVAAITHSGTRTYYADSVKGRFTISRDNAKNTVYLQMNSLKPEDTAVHYCAARGYGKYDYWGQGTQVTVSS
high polyreactivity
